Test system: CASKI
Assay: Primary qHTS to identify gynecologic anti-cancer compounds using libraries of approved drugs and bioactive compounds (AID 1345084); also: nearly all actives have a fitted effect of over 55% in size
Conditions: Gynecologic cancer cell panel viability, ATPlite luminescence, 48 h; series mostly up to 57.5 µM
Inconclusive results are not listed. Activity calls are given as the source filed them. Calls follow the shape of the dose curve; as a rule, active = well fitted cell-killing curve with a large enough effect; inconclusive = small, poorly fitted or top-dose-only effect, or effect the other way; inactive = flat fitted curve, though single readings scatter.
Pick from Y for active, N for inactive when you respond.

Ask: Which outcome was assigned to O=C(Nc1ccccc1)OCC(CN1CCCCC1)OC(=O)Nc1ccccc1 (stereo unspecified) in this test?
Result: N

Ask: Status in this test for "CC(=O)OCC1=C(C(=O)O)N2C(=O)[C@@H](NC(=O)CSc3ccncc3)[C@H]2SC1" ?
Result: N

Ask: Would you mind telling me which call this test gave "CCOC(=O)Nc1ccc2c(c1)N(C(=O)CCN1CCOCC1)c1ccccc1S2" ?
Result: N

Ask: Assay outcome for "CC(=O)NC(=O)c1ccccc1O" : what was it?
Result: N

Ask: I'd appreciate the recorded outcome for "NC(=S)N/N=C/c1cccnc1" from this test.
Result: N

Ask: What call does the record list for "CCN(CC)CCOc1ccccc1C(=O)CCc1ccccc1" ?
Result: N

Ask: Tell me the recorded outcome of this test for CC(C)(C)NCC(O)COc1cccc2c1C[C@H](O)[C@H](O)C2 (stereo partly specified) .
Result: N

Ask: Recorded test outcome, item "CC(=O)Nc1ccc(S(=O)(=O)Nc2ccc([N+](=O)[O-])cc2)cc1"
Result: N

Ask: Test call, this molecule: "C[C@H]1O[C@@H](O[C@H]2CC[C@@]3(C)[C@H](CC[C@@H]4[C@@H]3C[C@@H](O)[C@]3(C)[C@@H](C5=CC(=O)OC5)CC[C@]43O)C2)C[C@H](O)[C@@H]1O[C@H]1C[C@H](O)[C@H](O[C@H]2C[C@H](O)[C@H](O[C@@H]3O[C@H](CO)[C@@H](O)[C@H](O)[C@H]3O)[C@@H](C)O2)[C@@H](C)O1"
Result: Y

Ask: What call does the record list for "CCCCCCCCCCCCCCC[C@H](O)[C@@H](N)CO" ?
Result: N

Ask: Hi, sorry to bother you, what did the test record for "O=C(O)P(=O)(O)O" ?
Result: N
